tgt: human MDM2 (residues 2–125) (Homo sapiens, UniProt Q00987)
Construct: human MDM2 (residues 2–125); made in house; host or cells: E. coli BL21 (DE3)
Sequence (Q00987 2-125): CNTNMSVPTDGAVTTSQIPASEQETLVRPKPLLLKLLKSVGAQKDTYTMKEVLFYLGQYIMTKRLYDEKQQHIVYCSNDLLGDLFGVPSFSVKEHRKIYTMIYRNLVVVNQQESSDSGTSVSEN
protocol: Stopped-flow fluorescence kinetics of p53-peptide binding to MDM2
condition-details: stopped-flow Trp fluorescence, 15 °C, 50 mM Tris-HCl pH 8.0, 250 mM NaCl, 0.5 mM TCEP; peptide 0.125 μM, MDM2 1–3 μM, pseudo-first order; slope; ± fitting error; read-out: kon 10^6
measured-quantity: kon (M⁻¹ s⁻¹)
Unit M⁻¹ s⁻¹ implied. Number only.

Observe how each entry below is paired with its result.
CC(=O)N[C@@H](CCC(=O)O)C(=O)N[C@H](C(=O)N[C@@H](Cc1ccccc1)C(=O)N[C@@H](CC(=O)O)C(=O)N[C@@H](CC(=O)O)C(=O)N[C@@H](CC(C)C)C(=O)N[C@@H](Cc1c[nH]c2ccccc12)C(=O)N[C@@H](CCCCN)C(=O)N[C@@H](CC(C)C)C(=O)N[C@@H](CC(C)C)C(=O)N1CCC[C@H]1C(=O)N[C@@H](CCC(=O)O)C(=O)N[C@@H](CC(N)=O)C(N)=O)[C@@H](C)O :: 9.5e+06
CC(=O)N[C@@H](CCC(=O)O)C(=O)N[C@H](C(=O)N[C@@H](Cc1ccccc1)C(=O)N[C@@H](CCC(=O)O)C(=O)N[C@@H](CC(=O)O)C(=O)N[C@@H](CC(C)C)C(=O)N[C@@H](Cc1c[nH]c2ccccc12)C(=O)N[C@@H](CCCCN)C(=O)N[C@@H](CC(C)C)C(=O)N[C@@H](CC(C)C)C(=O)N1CCC[C@H]1C(=O)N[C@@H](CCC(=O)O)C(=O)N[C@@H](CC(N)=O)C(N)=O)[C@@H](C)O :: 9e+06
CC(=O)N[C@@H](CCC(=O)O)C(=O)N[C@@H](CC(=O)O)C(=O)N[C@@H](Cc1ccccc1)C(=O)N[C@@H](CO)C(=O)N[C@@H](CC(=O)O)C(=O)N[C@@H](CC(C)C)C(=O)N[C@@H](Cc1c[nH]c2ccccc12)C(=O)N[C@@H](CCCCN)C(=O)N[C@@H](CC(C)C)C(=O)N[C@@H](CC(C)C)C(=O)N1CCC[C@H]1C(=O)N[C@@H](CCC(=O)O)C(=O)N[C@@H](CC(N)=O)C(N)=O :: 5e+06

Log: human MDM2 (residues 2–125) (Homo sapiens, UniProt Q00987), compound CC(=O)N[C@@H](CCC(=O)O)C(=O)N[C@@H](CCC(=O)O)C(=O)N[C@@H](Cc1ccccc1)C(=O)N[C@@H](CO)C(=O)N[C@@H](CC(=O)O)C(=O)N[C@@H](CC(C)C)C(=O)N[C@@H](Cc1c[nH]c2ccccc12)C(=O)N[C@@H](CCCCN)C(=O)N[C@@H](CC(C)C)C(=O)N[C@@H](CC(C)C)C(=O)N1CCC[C@H]1C(=O)N[C@@H](CCC(=O)O)C(=O)N[C@@H](CC(N)=O)C(N)=O , kon = 3.8e+06

Measured values drawn from paper PMC6345774 for this set.
